Assign Drug uptake to each entry below.
system: Saccharomyces cerevisiae; experiment: Drug uptake in Saccharomyces cerevisiae ADMDR1 expressing Candida albicans MDR1 efflux pump at 200 uM pretreated for 10 mins measured after 60 mins by fluorescamine staining; assay type: ADME, organism-based; conditions: in vivo, 1 h
Residues, ends and D or L forms follow the SMILES beside them. *: point of attachment. Ethyl(2-NH2) = NCC*
Output should be the measured figure followed by the unit it is expressed in.

Solved entries (count: 3):
COMPOUND	Drug uptake
[N-]=[N+]=CC(=O)OC[C@H](N)C(=O)O	1.7 nmol/min/mg
CCC[C@H](N)C(=O)N[C@@H](CNC(=O)/C=C/C(=O)OC)C(=O)O	1.02 nmol/min/mg
CCC[C@H](NC(=O)[C@@H](N)CCCCN)C(=O)N[C@@H](CNC(=O)/C=C/C(=O)OC)C(=O)O	0.81 nmol/min/mg

State recorded Drug uptake for all listed compounds.
1. C[C@H](N)C(=O)O
2. N[C@H]1CCC[C@H]1C(=O)O

1. 3.33 nmol/min/mg
2. 1.67 nmol/min/mg

// returns reported Drug uptake for input CC(C)C[C@H](NC(=O)[C@H](CC(C)C)NC(=O)[C@@H](N)COCCN)C(=O)NCC(=O)O (H-S(Ethyl(2-NH2))LLG-OH)
0.65 nmol/min/mg
